Give measured apparent KD of MS2 coat protein for each item. Keep answers brief.
- System: MS2 coat protein
- assay_notes: apparent KD of MS2 coat protein; designed switch direction (-1 OFF switch, 1 ON switch): -1; higher = weaker reporter binding
- measurement_context: Eterna round: R95; input ligand: FMN 200 uM
Give bare numbers, in nM.

Some solved cases for reference:
{"sequence_string": "GAAAAGCUAGGAUAUACGAAAAAAAAGGGUAGAAAAAAAACACAUGAGGAUCACCCAUGUAGAAGGAGCAAAAG [salish99_ex2_r3_093] (puzzle: Exclusion 2)", "apparent KD of MS2 coat protein / nM": 102}
{"sequence_string": "UUAUCCGCUGAGGAUAUUAUCACUGAGAGGUGAUGAGAAGGCGGUACAUGAGGAUCACCCAUGUCUAUGGGCAG [Ex-6 Malc#23] (puzzle: Exclusion 6)", "apparent KD of MS2 coat protein / nM": 584}
{"sequence_string": "AGCGUGGCUCAGGAUAUCAGCCCUGUGGAGUUCUGAGAAGGGAGCACAUGAGGAUCACCCAUGUGAAAGGGUAC [Useratarin] (puzzle: Exclusion 6)", "apparent KD of MS2 coat protein / nM": 103}

Please give apparent KD of MS2 coat protein for each item listed below.
1. GGGAUGUCAGGAUAUACAUGAGGAUCACCCAUGUAGAGAUAAGAUAGGGAAAGAGUAGGUAGAAGGGACGAGAG [JR_Exclu3_Sub044] (puzzle: Exclusion 3)
2. UAUCGGCGGACCGAGGCUUUUUGCUCGUCUUAUGCUACGACAUGAGGAUCACCCAUGUGGUGGUGGUCCGUUGUAGU [JL ViennaUCT Bitein mod 8] (puzzle: Sensor v3, turn-off variant 2)

Response:
1. 22
2. 123

Quick batch: apparent KD of MS2 coat protein for everything below.
1. AGUGCUAACACGUUGGUGUUAGUACCAUAAGCUUGUGAUACAUGAGGAUCACCCAUGUCCUCAUAAGCUCGUCUUAU [salish99_TOv2_r2_098] (puzzle: Sensor v3, turn-off variant 2)
2. AAUUCUAGGGUCAGACGCACAAGCUUUUUGCUCGUUUUAACAUGAGGAUCACCCAUGUCUAGUGGAUCUGAUCGGGC [JL ViennaUCT Isreen mod 8] (puzzle: Sensor v3, turn-off variant 2)
3. AACGACUGAGGAUAUACAUGAGGAUCACCCAUGUGUUGAAAUACGUGCUUGGUUAACUGUAGAAGGCAGAAAAU [Isxeen] (puzzle: Exclusion 3)
4. AGAAAUGCCCAUGGCCACAAGCUUUUUGCUUGUCUUACUACAUGAGGAUCACCCAUGUACCAUGGGCUCCUGAUAAU [Anxemaes] (puzzle: Sensor v3, turn-off variant 2)
5. AGGAAGCAAGGAUAUACGAGGAGAAGGUGUCCAUCUAAAUGACAUGAGGAUCACCCAUGUAGAAGGUGCGAGAA [JR_Exclu2_Sub050] (puzzle: Exclusion 2)
6. UCAUGGUAGCAGGAUAUGCUAGAAAUUUUUUAUGCAGAAGGGCUUACAUGAGGAUCACCCAUGUGUUAGGUUUA [JR_E6_Sub071] (puzzle: Exclusion 6)

Response:
30.6
24.8
21.9
13.8
112
22.3

---

- Tested on: K4 kissing-loop RNA reporter
- assay_notes: apparent KD of K4 kissing-loop reporter; higher = weaker reporter binding
- measurement_context: Eterna round: R107; input ligand: arginine 13.2 mM
observation_type: apparent KD of K4 kissing-loop reporter
Give me the value, and tack the unit on after it.

{"sequence_string": "GCAGUGAUGUUGCUGAUGUGCAGUGGUAGUCGAGGACCGGUACGGCCGCCACUCGGUGAGAAUUUGUUAAUACAUCGAUAAGUGA [XVI]", "system_under_test": "K4 kissing-loop RNA reporter", "result_value": "558 nM"}

State the recorded apparent KD of K4 kissing-loop reporter for every item in the following list.
1. GGAUAGGACGGAGGAUAUGGUAGUGAUGUUACCAAACUGGUUAAACAUGUCAGAAAACUGGCAUGACCAGAAGGCCGUCCUAUCG [FmnBX 27 G10+C76]
2. GGUAGCUAGGCAGGAUAUAGCUAGUGGAGUGAUGUUCCACCAUACACGAGUGAUGUUCGUAACCUGCUAGAAGGGCCUAGCUACC
3. GCGUCACGUCGGGAUACCAGAGAAAUGGCAUUAGCCAAUGACGAGUGAUGUUCGUAGGCGCUCCCUUGGCAGCCCACCGGGAGGA [theeternabot_sameState_KL_Theo_B_21]

Response:
1: 62.6 nM; 2: 125 nM; 3: 218 nM

Hi, could you look up apparent KD of K4 kissing-loop reporter for each item in my list?
1. GGACCUCAGUGAUGUUGAGGUAACGCUGAUACCAGUGACUUAAUUCGCCCUUGGCAGCAGUCCACCGAGGUAUCUGAUUAGGUCU [Default title]
2. CGAACCUCCAAAGGAUAUCUCGUUUAGUGAUGUUUUGCGUAGUAUCAGGAUAGAAUAUUGAUUCAGAGAGAAGGUUGACGUUGGU [theeternabot_exclusion_KL_FMN_B_14]

Response:
["145 nM", "428 nM"]

---

- Test system: MS2 coat protein
- assay_notes: apparent KD of MS2 coat protein; higher = weaker reporter binding
- measurement_context: Eterna round: R107; input ligand: tryptophan 2.4 mM
For each of the sequences below, state its apparent KD of MS2 coat protein.
Answers are plain numbers, in µM.

{"sequence_string": "AAGGUGAUCCUCGAUACCAGCUCAACAUGAGGAUCACCCAUGUAAGCCUGGAAACAGGCGAGCCCUUGGCAGCGAGUUACAUCAA [(M)'-(Theo1)-(Ms2)-(Theo2)-(M'')]", "system_under_test": "MS2 coat protein", "observation_type": "apparent KD of MS2 coat protein", "unit_info": "µM", "result_value": 0.0186}
{"sequence_string": "UCACAUGAGGAUCACCCAUGUACAGGCGAUACCAGCCGUACAUUGGGCCCUUGGCAGCGCACCGAGGACUUUUUAAGCAUCUCGG [Diatbeen]", "system_under_test": "MS2 coat protein", "observation_type": "apparent KD of MS2 coat protein", "unit_info": "µM", "result_value": 0.0238}

// each listed sequence needs a value for apparent KD of MS2 coat protein
1. UUUACGGGAAACCGAACUAAACAAAGGGAAGGAGCGCCAAACAAGGCAGGUAGGUCGCCCACAUGAGGAUCACCCAUGUGUUGGG [Exclusion Arginine A GF 25]
2. UGGAAAGCACAUGAGGAUCACCCAUGUGAUACCAGCUGAAACUAAGGCCCUUGGCAGCACAUGGUACCAACCCUUUGGUAGUCCA [Vearedqu]

Response:
[0.0532, 0.0103]

For every listed record, write down its apparent KD of MS2 coat protein.
1. AUUAAGGAUAUGUAGAAGGCGGAGAAGAGACGAGGACCGGUACGGCCGCCACUCGUGUUAGUUAACAUGAGGAUCACCCAUGUAA [#06 Tryptophan A Same State]
2. ACAUGAAUAUCAUCUAUUUAUUGUACUGAAGGAGCGUCCAUGAGGACAGGUAGGUCGCAGUGUAAAACAUGAGGAUCACCCAUGU [Same State - Arginine A #1]

Response:
[0.0171, 0.023]

---

- Tested on: K4 kissing-loop RNA reporter;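 further: bound reporter read as fluorescence of individual clusters on recovered sequencing chips by microscopy, with normalized cluster intensities fitted with a binding model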
- assay_notes: apparent KD of K4 kissing-loop reporter; higher = weaker reporter binding
- measurement_context: Eterna round: R107; input ligand: arginine 13.2 mM
observation_type: apparent KD of K4 kissing-loop reporter (nM)
Numbers only, in nM.

Sample records with apparent KD of K4 kissing-loop reporter:
{"sequence_string": "AGUGAUGUUCCUCCUCUUGGUCUUGGUGGGCGAGGACCGGUACGGCCGCCACUCGAUGUGGGAGUGAUGUUUCCAUAUGAUGUUU [Tryptophan A]", "system_under_test": "K4 kissing-loop RNA reporter", "unit_info": "nM", "apparent KD of K4 kissing-loop reporter": 580}
{"sequence_string": "GACAUAUUCCAGGAUACCAGUGAUCCGCCGCAGCCGAAGACUAGUGAUGUUAGUUUCUGUCACCCUUGGCAGCCUCGAGUCUAAU [theeternabot_sameState_KL_Theo_B_15]", "system_under_test": "K4 kissing-loop RNA reporter", "unit_info": "nM", "apparent KD of K4 kissing-loop reporter": 487}

Batch: apparent KD of K4 kissing-loop reporter for all items listed.
1. CCAUCGCUAUUCGAUACCAGCUACUUAGUGAUGUUAAGUUUUUACCCACUGUAGGUGGGAAGCCCUUGGCAGCGAAUAGUGAUGG [Theophylline B K4 27]
2. AAUUUGGGUUCGGCCGCCACUCCAGUGAUGUUGGAUGGCGAAAUAAAGGCUAGACCAGGUUGCCGGAGGACCGGGAAUCCUGUAC [Qumabi]
3. GGCAUCCAUGGACAUAGUGAUGUUAUGUACCGAGGACCGGUACGGCCGCCACUCGGCCAUGGAUGCCGCAAUCGGAAACGAUUGC
4. CAAGUCGAAAAGUGAUGUUUUUCAUACGAUACCAGCAACCAGACAUGCCCUUGGCAGCGUCCAUUACGUUUCUGAGCCCGUACAG [theeternabot_exclusion_KL_Theo_A_40]
5. GACCGGCCGACGAGUGAUGUUCGAUGGGAAGGAGCGCGAAGAAAUGCAGGUAGGUCGCCCUAAGUAAUUGAAACGGCCGGAUUAU [2.)]
6. AGUGUUGUUUUUUUUAAGAGUGAUGUUUUUCGAGGACCGGUACGGCCGCCACUCGAGUGAUGAGUGAGGUGUGGUGAUGAUUAGU [#10 K4 Tryptophan A Exclusion]
7. GAUAUAUAGACGGCCGCCACUUAUAAAUUUCAGUGAUGUUGAAAUGUUAAAUAACGAACACAAUAGAGGACCGGGUCAAAUAUCG [Same State Tryptophan B GF 2]

Response:
203
152
558
336
143
790
161

Hi team, please reply with apparent KD of K4 kissing-loop reporter for each item in this list.
1. GAACGAGUGAUGUUCGUUAUUAUGCAUUCCGAGGAUAUGGGAUUAGCCAGAAGGCGGAAUCAAUCUUCGAGUGAUGUUCGAAGAU [Same State FMN A GF 11]
2. CUAGGUAACACAGGAUAUGUCCGAGUGAUGUUCGAGCCUUUCCAUUGACGAAAUUAAUGGUGGGUGACAGAAGGGUGAGUACUGA [Uses]
3. AUAGGAGUGAUGUUCCUUAGUCUCUCCGAUACCAGUAUGGAAACAUACCCUUGGCAGCGGGAGACCGCAGAUUAGGAAACUAGUC [Theophylline A K4 5]

Response:
138
640
179
